# assay.comment: soluble on expression in E. coli; label from the status in PepcDB or PDB records
metric: soluble on expression in E. coli

>>> observed_value("MIESVLLLVSGLPGSGKSTLARGMAEALAWPCLDKDDFLEALFDARGIGDAAWRRALSREADSRFLAALQAAPRAVACSWWRHPRGEGGSGTPIGGLARPGRLVLELHCRCPAELAAARFARRVRHPGHLDAQRDPGALSLQLRRAERLGPLGLGQCLILDASVQTDLSGALAWTRDALAAGALADPPRHPLEHHHHHH")
"not soluble"
>>> observed_value("MAHHHHHHMSTVEELKFIWKFLFSHMNTEKSKEEICDEKKYEENIILLKKLMRTENIKFDQKYNAINILEKLKDIEDIQYEDILNDYAKNFLTFLKGSFEKVAEEIQINDKISFRRNELIKQDLNNKLQNLNHNYNLEYINLNKCLGTEDFESQLNASLKFNSLKDILSKLLKEMKDYEIQYNNLSDTDKFLDMKICELENYLNNTNQNS")
"not soluble"

----------
# assay.comment: soluble on expression in E. coli; label from the status in PepcDB or PDB records
metric: soluble on expression in E. coli

>>> observed_value("MENEVVFFCRKCNHHLFAKNPMINTLKVISEMDCPNCGEEGYHNWILSHIGDSEKEKENYNWKLEHHHHHH")
"soluble"
>>> observed_value("SASATAPAAAVPTLASPLEQLRHLAEELRLLLPRVRVGEAQETTEEFNREMFWRRLNEAAVTVSREATTLTIVFSQLPLPSPQETQKFCEQVHAAIKAFIAVYYLLPKDQGITLRKLVRGATLDIVDGMAQLMEVLSVTPTQSPENNDLISYNSVWVACQQMPQIPRDNKAAALLMLTKNVDFVKDAHEEMEQAVEECDPYSGLLNDTEENNSDNHNHEDDVLGFPSNQDLYWSEDDQELIIPCLALVRASKACLKKIRMLVAENGKKDQVAQLDDIVDISDEISPSVDDLALSIYPPMCHLTVRINSAKLVSVLKKALEITKASHVTPQPEDSWIPLLINAIDHCMNRIKELTQSELEL")
"soluble"
>>> observed_value("QVQLVQSGAEVKKPGSSVKVSCKASGYTFSSNVISWVRQAPGQGLEWMGGVIPIVDIANYAQRFKGRVTITADESTSTTYMELSSLRSEDTAVYYCASTLGLVLDAMDYWGQGTLVTVSSASTKGPSVFPLAPCSRSTSESTAALGCLVKDYFPEPVTVSWNSGALTSGVHTFPAVLQSSGLYSLSSVVTVPSSSLGTKTYTCNVDHKPSNTKVDKRVESKYGPP")
"soluble"

----------
# assay.comment: soluble on expression in E. coli; label from the status in PepcDB or PDB records
metric: soluble on expression in E. coli

>>> observed_value("MGSDKIHHHHHHMRRKIPSTAALICFEAAARNESFTKAAQELALTQGAVCRQIGGLEAFLNVELFRRSRRGVRLTEAGLSYSRQVAAQLDAVERDTLSVMRQQGANVIELAVVPTFGTQWLLPRLKDFQQRHPEVTVNLTNRTRPFLFADTTFDAAIYFGDADWSGTQSHQLMGENPVPVCSPALLNGQGMLEARHIAQLPLLQQSTRPYAWRQWFGSVGMNVERDMTGPRYELFSMLAQAAMHDMGIALIPPFLIQRELEEGRLVVANRHALSSDKAYYLMIPERKVESASLRAFRDWLVSQAQAYINSSGTNAAN")
"not soluble"
>>> observed_value("MSSHKEEPLEADVDQLTQYRERCADHVTEFKSILDECNDRVNSRSNTEETCHQEMADYVHHLDHCAMPKAFASLK")
"not soluble"
>>> observed_value("MSLDVKNLAKWKKVPPVSDRIANTFVALKMLREVDEEHNPVLFSKAHRDNIYTVIDISHESPVYNPASLEAGGIHYQKYPTVSKIPPTPDEVRDFIALVDRLQKEITEKMEKSNTSGAARLRPVVGVHCHYGFNRTGFLIVSYLIERCGFGVQEAIDEFEKRRPPGIRHAHFIDTLFVRYCVGLKRAPTEGHHHHHH")
"not soluble"
